Entries annotated with measured pEC50
TARGET: human δ opioid receptor over-expressed in CHO cells (Homo sapiens)
Sequence (P41143 whole entry): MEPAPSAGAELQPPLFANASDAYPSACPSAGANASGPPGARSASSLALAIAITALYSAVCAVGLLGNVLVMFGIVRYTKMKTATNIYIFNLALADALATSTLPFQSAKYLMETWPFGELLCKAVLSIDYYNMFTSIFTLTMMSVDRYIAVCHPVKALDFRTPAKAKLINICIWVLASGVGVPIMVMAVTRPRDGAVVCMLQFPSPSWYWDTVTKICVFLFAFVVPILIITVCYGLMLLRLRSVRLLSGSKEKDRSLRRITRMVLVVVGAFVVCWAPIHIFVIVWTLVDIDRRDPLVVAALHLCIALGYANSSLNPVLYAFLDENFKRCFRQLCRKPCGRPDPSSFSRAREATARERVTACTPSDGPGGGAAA
ASSAY_INFO: [35S]GTPγS binding assay, agonist mode, δ
pEC50: −log10 of the molar value.

[
  {
    "CHEM_SMILES": "CCN(C)[C@H]1C[C@H]2C[C@@](c3cccc(O)c3)(C1)[C@H](C)CN2CCCc1ccccc1",
    "pEC50": "< 5.30"
  },
  {
    "CHEM_SMILES": "C[C@@H]1CN(CCCc2ccccc2)[C@H]2C[C@H](NCC3CC3)C[C@]1(c1cccc(O)c1)C2.Cl.Cl",
    "pEC50": "< 5.30"
  },
  {
    "CHEM_SMILES": "C[C@@H]1CN(CCCc2ccccc2)[C@@H]2CCC[C@]1(c1cccc(O)c1)C2.Cl",
    "pEC50": "< 5.30"
  },
  {
    "CHEM_SMILES": "C[C@H]1CN(CCCc2ccccc2)[C@@H]2C[C@@H](N)C[C@@]1(c1cccc(O)c1)C2",
    "pEC50": "< 5.30"
  },
  {
    "CHEM_SMILES": "CCCN[C@H]1C[C@H]2C[C@@](c3cccc(O)c3)(C1)[C@H](C)CN2CCCc1ccccc1.Cl.Cl",
    "pEC50": "< 5.30"
  },
  {
    "CHEM_SMILES": "CCN[C@H]1C[C@H]2C[C@@](c3cccc(O)c3)(C1)[C@H](C)CN2CCCc1ccccc1.Cl.Cl",
    "pEC50": "< 5.30"
  }
]

====

TARGET: human κ opioid receptor over-expressed in CHO cells (Homo sapiens, UniProt P41145)
Sequence (P41145 whole entry): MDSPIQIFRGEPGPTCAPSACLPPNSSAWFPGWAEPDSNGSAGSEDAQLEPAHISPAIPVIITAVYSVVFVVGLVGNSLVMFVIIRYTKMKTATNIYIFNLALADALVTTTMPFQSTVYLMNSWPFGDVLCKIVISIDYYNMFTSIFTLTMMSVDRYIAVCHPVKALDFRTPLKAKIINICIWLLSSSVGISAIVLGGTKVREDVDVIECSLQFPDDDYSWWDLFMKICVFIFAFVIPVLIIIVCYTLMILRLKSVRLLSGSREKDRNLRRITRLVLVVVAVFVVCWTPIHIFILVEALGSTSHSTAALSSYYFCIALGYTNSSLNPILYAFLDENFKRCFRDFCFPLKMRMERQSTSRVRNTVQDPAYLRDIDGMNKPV
ASSAY_INFO: Inhibition of κ agonist-stimulated [35S]GTPγS binding
Assay type: biochemical
RUN_CONDITIONS: vs κ agonist-stimulated [35S]GTPγS binding
Threshold-based label: Antagonist κ, U50,488 Ke under 20 nM gives true (1), Antagonist κ, U50,488 Ke not under 20 nM gives false (0).

[
  {
    "CHEM_SMILES": "C[C@@H]1CN(CCCc2ccccc2)[C@H]2C[C@H](N)C[C@]1(c1cccc(O)c1)C2.Cl.Cl",
    "ANSWER_LABEL": "true (1)"
  },
  {
    "CHEM_SMILES": "CN[C@H]1C[C@H]2C[C@@](c3cccc(O)c3)(C1)[C@H](C)CN2CCCc1ccccc1.Cl.Cl",
    "ANSWER_LABEL": "false (0)"
  },
  {
    "CHEM_SMILES": "C[C@@H]1CN(CCCc2ccccc2)[C@H]2C[C@H](N(C)C)C[C@]1(c1cccc(O)c1)C2.Cl.Cl",
    "ANSWER_LABEL": "false (0)"
  },
  {
    "CHEM_SMILES": "CCN[C@H]1C[C@H]2C[C@@](c3cccc(O)c3)(C1)[C@H](C)CN2CCCc1ccccc1.Cl.Cl",
    "ANSWER_LABEL": "false (0)"
  },
  {
    "CHEM_SMILES": "C[C@H]1CN(CCCc2ccccc2)[C@@H]2C[C@@H](N)C[C@@]1(c1cccc(O)c1)C2",
    "ANSWER_LABEL": "false (0)"
  }
]

====

TARGET: human μ opioid receptor over-expressed in CHO cells (Homo sapiens, UniProt P35372)
Sequence (P35372 whole entry): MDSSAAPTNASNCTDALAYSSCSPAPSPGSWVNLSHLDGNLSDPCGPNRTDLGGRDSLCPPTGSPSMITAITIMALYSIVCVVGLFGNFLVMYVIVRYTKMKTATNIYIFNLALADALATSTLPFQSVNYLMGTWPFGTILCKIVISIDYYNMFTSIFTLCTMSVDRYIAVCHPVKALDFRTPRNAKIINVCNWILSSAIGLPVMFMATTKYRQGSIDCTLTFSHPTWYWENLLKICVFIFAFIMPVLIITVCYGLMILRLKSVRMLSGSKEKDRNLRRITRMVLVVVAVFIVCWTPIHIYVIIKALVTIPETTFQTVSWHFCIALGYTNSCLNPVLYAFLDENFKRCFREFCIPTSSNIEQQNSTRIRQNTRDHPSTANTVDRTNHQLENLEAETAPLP
ASSAY_INFO: [35S]GTPγS binding assay, agonist mode, μ
pEC50: −log10 of the molar value.
VALUE_KIND: pEC50

[
  {
    "CHEM_SMILES": "C[C@@H]1CN(CCCc2ccccc2)[C@@H]2CCC[C@]1(c1cccc(O)c1)C2.Cl",
    "TARGET": "human μ opioid receptor over-expressed in CHO cells (Homo sapiens, UniProt P35372)",
    "VALUE": "< 5.30"
  }
]
